# Tested on: U2OS
# run-description: Multiplex assay against U2OS
# Format: toxicity, cell-based
# experimental-conditions: human, 24 h, 10 µM, compound concentration 10 uM, replicate 1
value-kind: Population Pyknosed Nuclei (%)
Use % as the unit, but write only the number.

// query Hello, please tell me recorded Population Pyknosed Nuclei (%) for this one: Cl.N=C(N)NC(=O)Cc1c(Cl)cccc1Cl [GUANFACINE HYDROCHLORIDE]
// result 9

// query Hello, please tell me recorded Population Pyknosed Nuclei (%) for this one: Cc1sc2c(c1C)C(c1ccc(Cl)cc1)=N[C@@H](CC(=O)NCCCCCCCCNC(=O)COc1cccc3c1C(=O)N(C1CCC(=O)NC1=O)C3=O)c1nnc(C)n1-2 (stereo partly drawn)
// result 12

// query Hello, please tell me recorded Population Pyknosed Nuclei (%) for this one: N#Cc1cc(F)cc(-c2nc(-c3ccc(F)cn3)no2)c1
// result 7

// query Hello, please tell me recorded Population Pyknosed Nuclei (%) for this one: Cl.NCCc1ccc(O)c(O)c1 [DOPAMINE HYDROCHLORIDE]
// result 10

// query Hello, please tell me recorded Population Pyknosed Nuclei (%) for this one: Cc1cnc(-c2cc(N3CCN(C(=O)CCS(C)(=O)=O)CC3)ncc2Cl)c(C)c1
// result 4

// query Hello, please tell me recorded Population Pyknosed Nuclei (%) for this one: CCc1cc2cc(NS(=O)(=O)c3ccc(C#N)cc3)ccc2n(CC)c1=O
// result 9

// query Hello, please tell me recorded Population Pyknosed Nuclei (%) for this one: CN1CCN(c2cc(-c3ccccc3)nc(N)n2)CC1
// result 6

// query Hello, please tell me recorded Population Pyknosed Nuclei (%) for this one: COc1ccccc1N1CCN(C[C@@H](C(=O)NC(C)(C)C)c2ccccc2)CC1.Cl.Cl
// result 18

// query Hello, please tell me recorded Population Pyknosed Nuclei (%) for this one: CN[C@@H](C)C(=O)N[C@H](C(=O)N1CCC[C@H]1C(=O)Nc1snnc1-c1ccccc1)C1CCCCC1
// result 20

// query Hello, please tell me recorded Population Pyknosed Nuclei (%) for this one: NCCc1cn(S(=O)(=O)c2c(Cl)nc3sccn23)c2ccccc12.O=C(O)C(=O)O
// result 31

// query Hello, please tell me recorded Population Pyknosed Nuclei (%) for this one: CC(/C=C1\SC(=S)N(CCCC(=O)Nc2ccc(C(=O)O)c(O)c2)C1=O)=C\c1ccccc1
// result 8

// query Hello, please tell me recorded Population Pyknosed Nuclei (%) for this one: CCCCC(=O)N(Cc1ccc(-c2ccccc2-c2nnn[nH]2)cc1)[C@H](C(=O)O)C(C)C
// result 8

// query Hello, please tell me recorded Population Pyknosed Nuclei (%) for this one: N#Cc1c(Oc2cccc(OS(=O)(=O)CCCC(F)(F)F)c2)cccc1C(F)(F)F
// result 7

// query Hello, please tell me recorded Population Pyknosed Nuclei (%) for this one: COc1cccc2c1c(NS(=O)(=O)c1ccc(Cl)s1)nn2Cc1cccc(CNC(=O)C(C)(C)O)c1
// result 10

// query Hello, please tell me recorded Population Pyknosed Nuclei (%) for this one: CC(C)COc1ccc(CNC(=O)N(Cc2ccc(F)cc2)C2CCN(C)CC2)cc1
// result 31

// query Hello, please tell me recorded Population Pyknosed Nuclei (%) for this one: CC(C)(C)c1cc(NC(=O)Nc2ccc(-c3cn4c(n3)sc3cc(OCCN5CCOCC5)ccc34)cc2)no1
// result 30

// query Hello, please tell me recorded Population Pyknosed Nuclei (%) for this one: O=C1[C@H](Cc2ccc(O)cc2)N2C(=O)CCN(C(=O)NCc3ccccc3)[C@H]2CN1Cc1cccc2ccccc12
// result 22

// query Hello, please tell me recorded Population Pyknosed Nuclei (%) for this one: CCCCC1=NC2(CCCC2)C(=O)N1Cc1ccc(-c2ccccc2-c2nnn[nH]2)cc1
// result 8
